Provenance of the data: ChEMBL document CHEMBL6121058

Quick reference: half-life of the listed items.
Assay: Half-life in male Beagle dog at 1 mg/kg, iv administered as single dose by LC-MS/MS analysis
Assay type: ADME, organism-based, Canis lupus familiaris
Conditions: in vivo

>  <MOLECULE>
C=CC(=O)N1CCN(c2c(C#N)c(=O)n(-c3c(C)ccnc3C(C)C)c3nc(-c4c(F)c(F)c(F)c(N)c4Cl)c(Cl)cc23)CC1 (atropisomer M)

>  <half-life>
44.3 min

$$$$
>  <MOLECULE>
C=CC(=O)N1CCN(c2c(C#N)c(=O)n(-c3c(C)ccnc3C(C)C)c3nc(-c4c(N)c(F)c(F)c(F)c4F)c(Cl)cc23)CC1 (atropisomer M)

>  <half-life>
45.9 min

$$$$

###

Experiment: Solubility of compound in FaSSGF at pH 1.6
Format: physicochemical

>  <MOLECULE>
C=CC(=O)N1CCN(c2c(C#N)c(=O)n(-c3c(C)ccnc3C(C)C)c3nc(-c4c(N)c(F)c(F)c(F)c4F)c(Cl)cc23)CC1 (atropisomer M)

>  <solubility [µM]>
1350

$$$$

###

Test: AUC (0 to 24 hrs) in male Sprague-Dawley rat at 3 mg/kg, iv administered as single dose by LC-MS/MS analysis
Type: ADME, organism-based
Conditions: in vivo
Quick reference: AUC(0-t) of the listed items.

>  <COMPOUND>
C=CC(=O)N1CCN(c2c(C#N)c(=O)n(-c3c(C)ccnc3C(C)C)c3nc(-c4c(N)c(Cl)cc(Cl)c4F)c(F)cc23)CC1

>  <AUC(0-t)>
984 ng·h/mL

$$$$
>  <COMPOUND>
C=CC(=O)N1CCN(c2c(C#N)c(=O)n(-c3c(C)ccnc3C(C)C)c3nc(-c4c(O)cccc4F)c(F)cc23)CC1CC#N (stereo not drawn)

>  <AUC(0-t)>
152 ng·h/mL

$$$$
>  <COMPOUND>
C=CC(=O)N1CCN(c2c(C#N)c(=O)n(-c3c(C)ccnc3C(C)C)c3nc(-c4ccccc4F)c(F)cc23)CC1

>  <AUC(0-t)>
669 ng·h/mL

$$$$
>  <COMPOUND>
C=CC(=O)N1CCN(c2c(C#N)c(=O)n(-c3c(C)ccnc3C(C)C)c3nc(-c4c(N)c(Cl)cc(Cl)c4F)c(Cl)cc23)CC1 (atropisomer M)

>  <AUC(0-t)>
1200 ng·h/mL

$$$$
>  <COMPOUND>
C=CC(=O)N1[C@H](C)CN(c2c(C#N)c(=O)n(-c3c(C)ccnc3C(C)C)c3nc(-c4c(O)cccc4F)c(F)cc23)C[C@@H]1C

>  <AUC(0-t)>
1430 ng·h/mL

$$$$
>  <COMPOUND>
C=CC(=O)N1CCN(c2c(C#N)c(=O)n(-c3c(C)ccnc3C(C)C)c3nc(-c4c(F)c(F)c(F)c(N)c4Cl)c(Cl)cc23)CC1 (atropisomer M)

>  <AUC(0-t)>
731 ng·h/mL

$$$$
>  <COMPOUND>
C=CC(=O)N1CCN(c2c(C#N)c(=O)n(-c3c(C)ccnc3C(C)C)c3nc(-c4c(O)cccc4F)c(F)cc23)CC1

>  <AUC(0-t)>
577 ng·h/mL

$$$$
>  <COMPOUND>
C=CC(=O)N1CCN(c2c(C#N)c(=O)n(-c3c(C)ccnc3C(C)C)c3nc(-c4c(N)c(F)c(F)c(F)c4F)c(Cl)cc23)CC1 (atropisomer M)

>  <AUC(0-t)>
708 ng·h/mL

$$$$
